Provide the reported Ki of each item.
Experiment: Sigma opioid receptor type 1 affinity in guinea pig brain by employing [3H](+)-pentazocine as radioligand.
Numbers only, in nM.

>>> reported("COC1Cc2ccccc2C2(CCN(CCCCc3ccccc3)CC2)O1 (centres undefined)")
10
>>> reported("COC1Cc2ccccc2C2(CCN(C)CC2)O1 (centres undefined)")
4400
>>> reported("COC1Cc2ccccc2C2(CCN(C/C=C/c3ccccc3)CC2)O1 (centres undefined)")
13

As a next step, examine the compound that follows.
Give its Ki value. Item: OC1Cc2ccccc2C2(CCN(CCc3ccccc3)CC2)O1 (centres undefined)
44

----------
Target: UniProtKB P23977
Sequence (P23977 whole entry, looked up): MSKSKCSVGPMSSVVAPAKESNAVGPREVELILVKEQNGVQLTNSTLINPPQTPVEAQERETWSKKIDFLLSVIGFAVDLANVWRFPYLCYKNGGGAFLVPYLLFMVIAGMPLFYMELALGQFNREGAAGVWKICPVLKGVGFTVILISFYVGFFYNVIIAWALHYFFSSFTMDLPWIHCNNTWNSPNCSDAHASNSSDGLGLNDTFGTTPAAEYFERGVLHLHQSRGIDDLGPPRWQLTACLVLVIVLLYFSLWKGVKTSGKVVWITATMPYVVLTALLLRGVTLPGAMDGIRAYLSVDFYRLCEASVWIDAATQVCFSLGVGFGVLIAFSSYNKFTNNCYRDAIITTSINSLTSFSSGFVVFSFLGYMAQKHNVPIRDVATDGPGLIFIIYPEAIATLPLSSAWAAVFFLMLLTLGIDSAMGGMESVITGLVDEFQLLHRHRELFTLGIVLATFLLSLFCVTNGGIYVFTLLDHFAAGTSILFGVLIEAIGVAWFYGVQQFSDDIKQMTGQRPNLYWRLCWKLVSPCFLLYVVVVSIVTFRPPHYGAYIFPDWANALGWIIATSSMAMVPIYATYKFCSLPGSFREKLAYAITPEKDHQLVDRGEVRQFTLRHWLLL
Assay: The compound was tested for inhibition of dopamine reuptake
measured.endpoint: IC50 (nM)
One number for each entry, in nM.

Give its IC50 value. Item: COC1Cc2ccccc2C2(CCN(CCCc3ccccc3)CC2)O1 (configuration not stated)
1600

Values from BindingDB's records for doi:10.1021/jm010992z
